assay_procedure: Solubility of β-lapachone in common solvent systems used for intravenous delivery
Assay type: physicochemical
test_settings: Tween 80, aqueous with cosolvent or surfactant or cyclodextrin; read-out: β-lapachone Solubility, Undiluted
test_readout: solubility

Quick note, solubility for "CC1(C)CCC2=C(O1)c1ccccc1C(=O)C2=O" landed at 11.2 mg/mL

====

System: MCF-7
assay_procedure: MTS growth inhibition assay
Assay type: cell-based, human
test_settings: Homo sapiens, MCF7, read-out: Growth inhibitory activity (50% effective concentration, IC50), MCF-7 breast, Mean ± SE of 3 experiments
test_readout: pIC50
Answers are plain numbers, as −log10 of the molar value.

// recorded pIC50 for "CC1(C)CCC2=C(O1)c1ccccc1C(=O)C2=O" : 5.51

====

assay_procedure: Solubility of β-lapachone in common solvent systems used for intravenous delivery
Format: physicochemical
test_settings: organic solvent or mixture; highest of all solvent systems, undiluted; read-out: maximum solubility in the solvents listed in Table 1
test_readout: solubility

Recorded solubility (molecule CC1(C)CCC2=C(O1)c1ccccc1C(=O)C2=O [β-lapachone] ): ~12 mg/mL

====

assay_procedure: Solubility in water and in 40% (w/v) HPBCD solution by UV absorbance
Assay type: physicochemical
Protocol: To determine solubilities, test compounds were first dissolved in ethanol to prepare standard solutions with concentrations in the range 2.5–10 mg/ml, then were diluted with to 10 μg/ml with water. UV scans were obtained of the 10 μg/ml standard solutions, and the wavelength of maximum absorbance and the absorbance at the maximum absorbance wavelength were determined. […] The concentrations of these saturated solutions were then calculated by ratio to the 10 μg/ml ethanolic standard solutions.
test_readout: Solubility Enhancement

Solved cases below.
// "CC1(C)CC(=O)C2=C(O1)c1ccccc1C(=O)C2=O" : Solubility Enhancement value = 8.7 −Fold

The reported value for CC1(C)OC2=C(CC1Br)C(=O)C(=O)c1ccccc12 (stereo not drawn) in terms of Solubility Enhancement is 191 −Fold

Solubility Enhancement recorded for this compound, CC1(C)C=CC2=C(O1)c1ccccc1C(=O)C2=O [3,4-dehydro-βL] , is 240 −Fold

The compound listed as CC(C)=CCC1CC2=C(OC1(C)C)c1ccccc1C(=O)C2=O (stereo not drawn) has a reported Solubility Enhancement of 61 −Fold

In plain terms, CC1(C)OC2=C(CC1O)C(=O)C(=O)c1ccccc12 (stereo not drawn) [Compound 3-Hydroxy-βL, 3-Hydroxy-βL] has a documented Solubility Enhancement of 10.6 −Fold

Now look at this one.
Short answer for CC1OC2=C(C(=O)C(=O)c3ccccc32)C1(C)C (stereo not drawn) : Solubility Enhancement was 36 −Fold

====

Test system: HT-29
assay_procedure: MTS growth inhibition assay
Assay type: cell-based, human
test_settings: Homo sapiens, HT-29, read-out: Growth inhibitory activity (50% effective concentration, IC50), HT-29 colon, Exp 3
test_readout: IC50 (µM)
One number for each entry, in µM.

Entry CC1(C)CCC2=C(O1)c1ccccc1C(=O)C2=O [β-lapachone] , IC50 reported as 9.89

====

assay_procedure: Solubility of β-lapachone in common solvent systems used for intravenous delivery
Format: physicochemical
test_settings: Povidone K17 20%, aqueous with cosolvent or surfactant or cyclodextrin; read-out: β-lapachone Solubility, Undiluted
test_readout: solubility (µg/mL)
Answers are plain numbers, in µg/mL.

# solubility (molecule: CC1(C)CCC2=C(O1)c1ccccc1C(=O)C2=O [β-lapachone] ) is 1820
